target: T1, human MSLN-hFc protein (Acro, Cat. No. MSN-H5253) (human, UniProt Q13421 296-580); assay: ELISA, coated human MSLN-hFc, antibody 0.01 nM
T1 construct: bought protein; also called human MSLN full-length protein; not shown: human Fc (hFc) of the bought protein
T1 sequence (Q13421 other isoform, or with tags, fused parts or gaps limits assumed): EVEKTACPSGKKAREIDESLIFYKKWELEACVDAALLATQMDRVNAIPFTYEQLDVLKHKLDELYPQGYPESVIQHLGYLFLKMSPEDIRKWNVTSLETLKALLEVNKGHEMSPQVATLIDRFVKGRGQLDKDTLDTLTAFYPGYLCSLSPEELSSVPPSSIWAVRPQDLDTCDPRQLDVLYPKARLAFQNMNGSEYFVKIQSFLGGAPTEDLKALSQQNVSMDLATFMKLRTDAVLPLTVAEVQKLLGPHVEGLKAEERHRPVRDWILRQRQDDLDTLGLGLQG
RECORDED_METRIC: OD450 nm
Reply with the value as a number alone.

Lookup: Requested read-out: OD450 nm. Entry: F2.39.3-H6 (scFv, not shown: small tags and cut ends, also called S009-F2.39.3 humanized VH2 + VL2) scFv: EVQLVQSGAEVKKPGASVKVSCKASGYTFTNYWMHWVRQAPGQGLEWMGNINPSSGDSYYNERFMSRVTMTVDKSTSTAYMELSSLRSEDTAVYYCARSGGLWLAFWGQGTLVTVSSGGGGSGGGGSGGGGSDIVMTQSPDSLAVSLGERATINCKSSQTLLNSVSQNNYLAWYQQKPGQSPTLLIYFASTRESGVPDRFSGSGSGTDFTLTISSLQAEDVAVYYCQQHYRTPYTFGGGTKVEIK
Found: 0.07

Lookup: Now the same for F2.39.3-H2 (scFv, not shown: small tags and cut ends, also called S009-F2.39.3 humanized VH1 + VL2) scFv: EVQLVQSGAEVKKPGASVKVSCKASGYTFTNYWMHWVRQAPGQGLEWMGNINPSSGDSYYNERFMSRVTMTVDKSTSTVYMELSSLRSEDTAVYYCARSGGLWLAFWGQGTLVTVSSGGGGSGGGGSGGGGSDIVMTQSPDSLAVSLGERATINCKSSQTLLNSVSQNNYLAWYQQKPGQSPTLLIYFASTRESGVPDRFSGSGSGTDFTLTISSLQAEDVAVYYCQQHYRTPYTFGGGTKVEIK
Found: 0.06

Lookup: Now the same for F2.39.3-H9 (scFv, not shown: small tags and cut ends, also called S009-F2.39.3 humanized VH3 + VL1) scFv: EVQLVQSGAEVKKPGASVKVSCKASGYTFTNYWMHWVRQAPGQGLEWMGNINPSSGDSYYNERFMSRVTMTVDKSTSTAYMELSSLRSEDTAVYYCARSGGLWLAFWGPGTLVTVSSGGGGSGGGGSGGGGSDIVMTQSPDSLAVSLGERATINCKSSQTLLNSVSQNNYLAWYQQKPGQSPKLLIYFASTRESGVPDRFSGSGSGTDFTLTISSLQAEDVAVYYCQQHYRTPYTFGGGTKVEIK
Found: 0.06
